Data provenance: patent US6338955B2

# assayed.target: GnT-IV (Bos taurus)
# Construct: it is thought that GnT-IV from bovine small intestine is a glycoprotein having at least Asn-linked sugar chains; from tissue; host or cells: bovine small intestine (microsome fraction, Triton X-100 solubilized, purified to Sample 7)
# Sequence (O77836 93-535 limits assumed): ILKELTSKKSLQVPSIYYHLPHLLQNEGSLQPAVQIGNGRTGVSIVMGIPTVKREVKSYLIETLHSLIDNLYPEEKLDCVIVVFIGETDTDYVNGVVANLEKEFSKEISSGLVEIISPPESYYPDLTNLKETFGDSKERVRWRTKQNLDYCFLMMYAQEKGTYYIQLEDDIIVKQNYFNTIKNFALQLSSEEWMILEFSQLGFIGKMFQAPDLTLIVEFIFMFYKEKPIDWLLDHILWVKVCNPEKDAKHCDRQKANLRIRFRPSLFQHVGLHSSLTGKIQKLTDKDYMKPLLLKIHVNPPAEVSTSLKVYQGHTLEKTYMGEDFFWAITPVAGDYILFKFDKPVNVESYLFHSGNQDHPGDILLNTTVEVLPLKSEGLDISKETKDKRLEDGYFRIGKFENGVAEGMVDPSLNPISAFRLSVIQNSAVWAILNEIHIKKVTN
# experiment.description: Specific assay for GnT-IV activity (pyridylaminated oligosaccharide acceptor, HPLC) with purified enzyme
# Assay type: biochemical, bovine
# test.conditions: additive 10 mM added to GnT-IV sample freed of metal ions; activity with 10 mM MnCl2 = 100%
# Protocol: Then, the reaction was terminated by boiling the solution for 2 minutes. […] The fluorescence of pyridylamino groups was detected using excitation at 320 nm and emission at 400 nm.
result.type: Activity (%), Divalent Cation Requirement of GnT-IV

Reference set (2 entries):
[
  {
    "chemical.smiles": "[Ca+2].[Cl-].[Cl-]",
    "data.value": 7.2
  },
  {
    "chemical.smiles": "[Cl-].[Cl-].[Mg+2]",
    "data.value": 72.5
  }
]

(A) [Cl][Cu][Cl]
(B) [Cl][Mn][Cl]
(C) [Cl][Fe][Cl]
input: Rank entries according to their Activity (%), Divalent Cation Requirement of GnT-IV, from the largest number down. The reply should contain the labels ordered as requested.
output: B, C, A
(B: 100%, C: 9.8%, A: 0%)
